- assay_summary: COV-362 Cancer Cell Toxicity qHTS against the NCATS CANVASS Library (AID 1347352); further: on the % scale 0 is the no-effect control and ±100 the full control effect
- measurement_setup: COV-362 viability, CellTiter-Glo luminescence, 72 h; series mostly up to 38.3 µM
Inconclusive results are not listed. The source made the active and inactive calls. The call rests on the fitted dose curve; in most records, active means well fitted cell-killing curve with a large enough effect; inconclusive means small, poorly fitted or top-dose-only effect; inactive means flat fitted curve, though single readings scatter.
measured_metric: outcome

{"columns": ["molecule", "observed"],
 "data": [
  ["CO[C@@H](/C=C/CC/C=C/C(=O)O)[C@@H](O)[C@H](C)[C@@H](O)/C(C)=C/[C@H](C)C(=O)CCCC1CC(=O)NC(=O)C1", "inactive"],
  ["CCCC[C@@H]1CC[C@H]2CCCC(CCC)N12 (stereo partly drawn)", "inactive"],
  ["CC1=CC2CC[C@@H]3[C@@H](C)C[C@H](C)[C@@H](C1)N23 (stereo partly drawn)", "inactive"]
]}

###

- assay_summary: qHTS for Inhibitors of the Functional Ribonucleoprotein Complex (vRNP) of Lassa (LASV) Arenavirus: LASV Primary Screen - GLuc reporter signal (AID 1347082); further: nearly all actives have a fitted effect of over 60% in size
- measurement_setup: LASV minigenome vRNP, Gaussia luciferase reporter; series mostly up to 57.5 µM
Results filed as inconclusive are left out. Activity calls are given as the source filed them. The call rests on the fitted dose curve; tested in HEK293 reporter line.
Outcomes: Y (active), N (inactive)

{"columns": ["molecule", "label"],
 "data": [
  ["c1ccc2c3c([nH]c2c1)C1(CCCCC1)NCC3", "N"],
  ["O=c1[nH]c(=O)n([C@H]2C[C@@H](O)[C@@H](CO)O2)cc1C=CBr", "N"],
  ["CCCC(=O)OC", "N"],
  ["N#CC1(c2ccc(NC(=O)c3cccnc3NCc3ccncc3)cc2)CCCC1", "N"],
  ["CC(C)(F)C[C@H](N[C@@H](c1ccc(-c2ccc(S(C)(=O)=O)cc2)cc1)C(F)(F)F)C(=O)NC1(C#N)CC1", "N"],
  ["CCOC(=O)/C=C/c1ccccc1", "N"],
  ["O=C(NC(Cc1ccccc1)C(=O)O)c1ccccc1 (stereo unspecified)", "N"],
  ["Cc1ccccc1-n1c(Cn2nc(-c3cccc(O)c3)c3c(N)ncnc32)nc2cccc(C)c2c1=O", "Y"],
  ["C[C@]12CC[C@@H]3c4ccc(O)cc4CC[C@H]3[C@H]1C[C@@H](O)[C@H]2O", "N"],
  ["C=CC(C)(C)c1c2occc2c(O)c2ccc(=O)oc12", "N"],
  ["CC1=C(/C=C/C(C)=C/C=C/C(C)=C\\C=O)C(C)(C)CCC1", "N"]
]}

###

- assay_summary: qHTS assay for cell viability of HEK293 cells (AID 743288); further: on the % scale 0 is the no-effect control and ±100 the full control effect; nearly all actives have a fitted effect of over 50% in size
- measurement_setup: ATP luminescence (CellTiter-Glo), 18 h; hits give low values
Results filed as inconclusive are left out.
measured_metric: max response (%)

{"columns": ["smiles_notation", "measured_metric", "unit_info", "observed"],
 "data": [
  ["OCCN(CCO)CCO", "max response", "%", -0.515],
  ["CCCCOP(=O)(O)OCCCC", "max response", "%", -9.76],
  ["CC(C)COC(=O)c1ccccc1C(=O)OCC(C)C", "max response", "%", 0.653],
  ["CC(=O)/C=C/c1ccccc1", "max response", "%", -4.92],
  ["C[C@]12CC[C@H]3[C@@H](CCC4=CC(=O)CC[C@@]43C)[C@@H]1CC[C@H]2O", "max response", "%", -7.89]
]}
